System: HS 578T breast
assay overview: NCI tumour cell line growth inhibition, 48 h
Catalogue of TGI values

Completed entries (count: 4):
CC(N)(CC(O)(C(F)(F)Cl)C(F)(F)Cl)C(=O)O (stereo not given) = > 10 µM
O=C(NCCN(CCNC(=O)c1cccc(O)c1O)CCNC(=O)c1cccc(O)c1O)c1cccc(O)c1O = > 100 µM
COC1(OC)c2occc2C(=N)c2ccc(=O)oc21 = > 100 µM
CCCCCC(=O)O[C@]1(C(C)=O)CCC2C3CCC4=CC(=O)CC[C@]4(C)C3CC[C@@]21C (stereo not given in full) = > 50.5 µM

Next item in the queue.
Hello, I am looking for reported TGI with HS 578T breast for COCCN(CCOC)c1nc(-c2ccccc2)nc2ccccc12 . Could you help?
> 100 µM

Origin of values: PubChem BioAssay (NCI)
